For each of the molecules below, state its % Remaining at 45 Minutes (Mouse Liver Microsomes + NADPH).
# Protocol Details: Compound stability in mouse liver microsomes
# Format: in vitro ADME
# Condition Details: 37° C.
Just the number please, in %, no unit attached.

q: Using the record for `CN(C)C(=O)c1ccc(-n2ccc3cc(C(=O)N4CCCCC4)cnc32)cc1` , state its measured % Remaining at 45 Minutes (Mouse Liver Microsomes + NADPH).
a: 86

q: Using the record for `O=C(c1cnc2c(ccn2-c2ccc(O)nc2)c1)N1CCCCC1` , state its measured % Remaining at 45 Minutes (Mouse Liver Microsomes + NADPH).
a: 74

q: Using the record for `NC(=O)c1ncc(-n2ccc3cc(C(=O)N4CCCCC4)cnc32)cn1` , state its measured % Remaining at 45 Minutes (Mouse Liver Microsomes + NADPH).
a: 81

q: Using the record for `CNC(=O)c1ccc(-n2ccc3cc(C(=O)N4CCCCC4)cnc32)cc1` , state its measured % Remaining at 45 Minutes (Mouse Liver Microsomes + NADPH).
a: 80

q: Using the record for `NC(=O)c1ccc(-n2ccc3cc(C(=O)N4CCC(F)CC4)cnc32)cc1` , state its measured % Remaining at 45 Minutes (Mouse Liver Microsomes + NADPH).
a: 70

q: Using the record for `COCCNC(=O)c1ccc(-n2ccc3cc(C(=O)N4CCCCC4)cnc32)cc1` , state its measured % Remaining at 45 Minutes (Mouse Liver Microsomes + NADPH).
a: 89

q: Using the record for `CNC(=O)c1ccc(-n2ccc3cc(C(=O)N4CCC(F)CC4)cnc32)cc1` , state its measured % Remaining at 45 Minutes (Mouse Liver Microsomes + NADPH).
a: 88

q: Using the record for `Cc1c(C(=O)N2CCC(F)CC2)cnc2c1ccn2-c1ccc(C(N)=O)cc1` , state its measured % Remaining at 45 Minutes (Mouse Liver Microsomes + NADPH).
a: 89

q: Using the record for `COCCNC(=O)c1ccc(-n2ccc3cc(C(=O)N4CCC(F)CC4)cnc32)cc1` , state its measured % Remaining at 45 Minutes (Mouse Liver Microsomes + NADPH).
a: 84

q: Using the record for `O=C(c1cnc2c(ccn2-c2ccc(CO)cc2)c1)N1CCCCC1` , state its measured % Remaining at 45 Minutes (Mouse Liver Microsomes + NADPH).
a: 71

Measured values drawn from patent US20230390274A1 for this set.
